Listed here: items and their measured viability, T/C.
System: VA-ES-BJ tumor spheroid viability
Assay: Anticancer human tumor VA-ES-BJ cell line growth inhibition;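 note: spheroids exposed to compounds for seven days; percent of DMSO vehicle control viability so 100% = untreated growth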
Conditions: second compound 0.00949 µM; first compound 3.16 µM; stronger effect = lower value; spheroids with HUVEC and MSC
Reply with just the number (in %).

Example entries and their recorded answers appear below.
molecule	experimental.system	viability, T/C, %
CC(C)n1c(=O)n(C)c2cnc3cc(F)c(-c4ccc(OCCCN5CCCCC5)nc4)cc3c21 + CC[C@@]1(O)C(=O)OCc2c1cc1n(c2=O)Cc2cc3c(CN(C)C)c(O)ccc3nc2-1	VA-ES-BJ tumor spheroid viability	37.3
COc1cc(C)[nH]c(=O)c1CN1CCc2c(Cl)cc(C(OC)C3COC3)c(Cl)c2C1=O (stereo unspecified) + CC[C@@]1(O)C(=O)OCc2c1cc1n(c2=O)Cc2cc3c(CN(C)C)c(O)ccc3nc2-1	VA-ES-BJ tumor spheroid viability	53
[2H]c1nc(C)nc([2H])c1-c1cc(NC[C@@H](C)c2cccc3c(C(=O)NC)ccnc23)ncn1 + CC[C@@]1(O)C(=O)OCc2c1cc1n(c2=O)Cc2cc3c(CN(C)C)c(O)ccc3nc2-1	VA-ES-BJ tumor spheroid viability	87.3
CC1COCCN1c1cc(-c2ccnn2C)c2ccnc(-c3ccn[nH]3)c2n1 (stereo unspecified) + CC[C@@]1(O)C(=O)OCc2c1cc1n(c2=O)Cc2cc3c(CN(C)C)c(O)ccc3nc2-1	VA-ES-BJ tumor spheroid viability	5.91
Cc1cc(C)c(CNC(=O)c2cc(-c3ccc(CN4CCOCC4)cc3)cc3c2cnn3C2CCCC2)c(=O)[nH]1 + CC[C@@]1(O)C(=O)OCc2c1cc1n(c2=O)Cc2cc3c(CN(C)C)c(O)ccc3nc2-1	VA-ES-BJ tumor spheroid viability	86.5

For the next question, use this molecule.
Recorded result, COc1ccc([C@@H](O)c2cc(-c3ncnc4cc(N5CCOCC5)ccc34)c(F)cc2Cl)nn1 + CC[C@@]1(O)C(=O)OCc2c1cc1n(c2=O)Cc2cc3c(CN(C)C)c(O)ccc3nc2-1 , viability, T/C: 15.8
